Here the recorded melting point is given for each entry.
test.readout: melting point

- compound: "CC(C)(C)OC(=O)N=C(NC(=O)OC(C)(C)C)N1CCC(n2ccc3ccccc32)CC1"
  result: "115 to 118 °C"
- compound: "CNCCc1ccc2[nH]cc(S(=O)(=O)c3ccccc3)c2c1"
  result: "151 to 154 °C"
- compound: "CCN(CC)c1ccc(S(=O)(=O)N2CC(O)CC2=O)cc1 (stereo not given)"
  result: "165 °C"
- compound: "Cc1cc(-n2ccnc2)c2cccc(OCc3c(Cl)ccc(S(=O)(=O)N4CCC[C@H]4C(=O)N(C)CCCN(C)CCCCO)c3Cl)c2n1"
  result: "82 °C"
- compound: "COc1ccc(N/C=C2\\C(=O)NC(=O)c3ccccc32)cc1"
  result: "150 to 151 °C"
- compound: "CCC(=O)NC1c2cc3nonc3cc2OC(C)(C)C1O (stereo not given)"
  result: "203 to 205 °C"
- compound: "CC(=O)NCC1CN(c2ccc(-c3cccc(CF)c3)c(F)c2)C(=O)O1 (stereo not given)"
  result: "120 to 122 °C"
- compound: "COc1ccc(Sc2cc(Cl)ccc2[N+](=O)[O-])c(C(=O)O)c1"
  result: "184 to 186 °C"
- compound: "CC[C@H](N)c1nc2c(C(F)(F)F)cccc2c(O)c1C(=O)Nc1nccs1"
  result: "206 °C"
- compound: "CCNC(=O)n1nc(Oc2ncc(C(F)(F)F)cc2Cl)cc1C(F)(F)F"
  result: "52 to 54 °C"
- compound: "CCn1cc(Nc2nc(-c3cccc(N4Cc5cc(C(C)(C)C)ccc5C4=O)c3CO)cn(C)c2=O)cn1"
  result: "138 to 140 °C"
- compound: "Oc1ccccc1-c1nnco1"
  result: "112 to 113 °C"
- compound: "COc1ccccc1C(C)(O)c1ccco1 (stereo not given)"
  result: "64 to 66 °C"
- compound: "N#Cc1nn(-c2c(Cl)cc(C(F)(F)F)cc2Cl)c(N)c1C#CCO"
  result: "237 to 239 °C"
- compound: "CCc1[nH]c(=O)c(C#N)cc1-c1ccncc1"
  result: "> 300 °C"
- compound: "COC(=O)C(C)(C)C(O)CCOc1cc(C)ccc1C (stereo not given)"
  result: "40.5 to 41 °C"
- compound: "CNCCc1ccc(-c2ccc(OC(C)C(O)CCc3cccnc3)cc2)cc1 (stereo not given)"
  result: "113 to 114 °C"
- compound: "COc1cc2ncc(N[C@H]3CC[C@H](C(=O)OC)CC3)nc2cc1OC"
  result: "68 to 80 °C"
- compound: "CCCc1nc(C(=O)OC)c(C(=O)OC)n1Cc1ccc(-c2ccccc2-c2nnnn2C(c2ccccc2)(c2ccccc2)c2ccccc2)cc1"
  result: "124 to 126 °C"
- compound: "CC(C)Nc1nc(-n2cccn2)nc(Cl)c1-c1c(F)cccc1Cl"
  result: "94 to 98 °C"
- compound: "O=c1n(CCO)c2ccccc2n1CCO"
  result: "145 to 158 °C"
- compound: "NC(=O)c1ccc(F)c2c1OCC(N(CCCc1c[nH]c3c(F)cc(F)cc13)C1CCC1)C2 (stereo not given)"
  result: "136 °C"
- compound: "COc1ccccc1N1CCN(CCCNC(=O)c2cccc3c(=O)c(O)c(-c4ccccc4)oc23)CC1"
  result: "196 to 199 °C"
- compound: "CCCCCCCC(=O)NCc1ccccc1"
  result: "76 to 78 °C"
- compound: "CCOC(=O)CC(NC(=O)C1CCCCC1)C(=O)c1ccco1 (stereo not given)"
  result: "58 to 61 °C"
- compound: "Cc1cc(=O)c(-c2ccc(Oc3cccc(OC(F)(F)F)c3)cc2)c(C)[nH]1"
  result: "244 to 246 °C"
- compound: "COC(=O)c1cc(Cl)cc2c1OCC(=O)N2"
  result: "239 to 241 °C"
- compound: "CCN(CC)C(=O)C(C)(C)C(=O)O"
  result: "110 to 112 °C"
- compound: "Cc1nn(-c2ccc(Cl)nn2)c(C)c1[N+](=O)[O-]"
  result: "164 to 167 °C"
- compound: "COc1cc(NC(=O)Nc2ccc(C3CCN(C(=O)Nc4ccc(OCCO)cc4Cl)CC3)cc2)cc(OC)c1"
  result: "101 to 105 °C"
- compound: "CC(=O)N1CCN(c2nc(N)ccc2[N+](=O)[O-])CC1"
  result: "202 to 203 °C"
- compound: "CN1C(=O)CN=C(c2cccc(Cl)c2)c2cc(C(O)(c3ccc(Cl)cc3)c3cncn3C)ccc21 (stereo not given)"
  result: "226 °C"
- compound: "COc1cc(C(=O)Cn2c(-c3nonc3N)nc3ccccc32)ccc1O"
  result: "265 °C"
- compound: "COc1ccccc1C1=C(NC(=O)Nc2ccc(N(C)C)cc2)SCc2ccccc21"
  result: "128 to 130 °C"
- compound: "Cn1cc(C(N)=O)c(=O)c2cc(F)ccc21"
  result: "295 to 299 °C"
- compound: "N#Cc1nn(-c2c(Cl)cc(C(F)(F)F)cc2Cl)cc1C1CC(F)(F)C1"
  result: "128 to 129 °C"
- compound: "CCCn1c(=O)c2c(nc(CO)n2C)n(CCC)c1=O"
  result: "111 to 112 °C"
- compound: "CCNc1ccc(NC(=O)c2ccc(C)c(Nc3nccc(-c4cccnc4)n3)c2)cc1C(F)(F)F"
  result: "178 to 180 °C"
- compound: "CCOC(=O)c1c(CN(CC)CC)nc2sc(C)c(C)c2c1-c1ccc(OC)cc1"
  result: "116 to 118 °C"
- compound: "CS(=O)(=O)c1ccc(Oc2ccc([N+](=O)[O-])cc2[N+](=O)[O-])cc1"
  result: "176 to 177 °C"
